Reference source for all entries: ChEMBL document CHEMBL2331362

Target: Integrin alpha-4/beta-7 (Homo sapiens, UniProt P13612+P26010)
Sequence (P13612 whole entry): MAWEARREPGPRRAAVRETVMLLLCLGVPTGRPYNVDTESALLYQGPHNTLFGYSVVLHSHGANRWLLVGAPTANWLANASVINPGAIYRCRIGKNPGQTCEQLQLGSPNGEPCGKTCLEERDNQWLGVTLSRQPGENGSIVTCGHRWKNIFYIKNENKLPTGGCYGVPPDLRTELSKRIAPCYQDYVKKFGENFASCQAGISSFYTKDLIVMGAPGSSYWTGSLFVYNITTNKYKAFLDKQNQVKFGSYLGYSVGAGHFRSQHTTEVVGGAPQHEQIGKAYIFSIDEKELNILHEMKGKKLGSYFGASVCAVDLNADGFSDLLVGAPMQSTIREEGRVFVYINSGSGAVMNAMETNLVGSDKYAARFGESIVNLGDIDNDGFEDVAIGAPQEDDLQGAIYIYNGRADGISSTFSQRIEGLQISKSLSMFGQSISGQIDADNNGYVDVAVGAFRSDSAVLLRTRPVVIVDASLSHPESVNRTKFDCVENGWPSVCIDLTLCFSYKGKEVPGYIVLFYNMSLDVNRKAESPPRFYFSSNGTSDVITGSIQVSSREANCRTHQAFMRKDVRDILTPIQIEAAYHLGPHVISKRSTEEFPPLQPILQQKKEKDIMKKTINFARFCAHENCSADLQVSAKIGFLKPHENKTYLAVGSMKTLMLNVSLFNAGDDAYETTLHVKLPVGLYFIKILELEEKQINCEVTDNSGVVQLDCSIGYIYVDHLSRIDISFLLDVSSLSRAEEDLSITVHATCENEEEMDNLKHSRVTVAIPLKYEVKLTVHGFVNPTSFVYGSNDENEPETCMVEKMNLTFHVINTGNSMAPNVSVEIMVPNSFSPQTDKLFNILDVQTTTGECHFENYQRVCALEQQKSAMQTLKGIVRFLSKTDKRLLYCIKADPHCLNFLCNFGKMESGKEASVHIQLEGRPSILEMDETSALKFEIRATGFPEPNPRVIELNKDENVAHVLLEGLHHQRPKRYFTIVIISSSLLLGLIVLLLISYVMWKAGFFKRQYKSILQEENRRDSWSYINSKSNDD
Sequence (P26010 whole entry): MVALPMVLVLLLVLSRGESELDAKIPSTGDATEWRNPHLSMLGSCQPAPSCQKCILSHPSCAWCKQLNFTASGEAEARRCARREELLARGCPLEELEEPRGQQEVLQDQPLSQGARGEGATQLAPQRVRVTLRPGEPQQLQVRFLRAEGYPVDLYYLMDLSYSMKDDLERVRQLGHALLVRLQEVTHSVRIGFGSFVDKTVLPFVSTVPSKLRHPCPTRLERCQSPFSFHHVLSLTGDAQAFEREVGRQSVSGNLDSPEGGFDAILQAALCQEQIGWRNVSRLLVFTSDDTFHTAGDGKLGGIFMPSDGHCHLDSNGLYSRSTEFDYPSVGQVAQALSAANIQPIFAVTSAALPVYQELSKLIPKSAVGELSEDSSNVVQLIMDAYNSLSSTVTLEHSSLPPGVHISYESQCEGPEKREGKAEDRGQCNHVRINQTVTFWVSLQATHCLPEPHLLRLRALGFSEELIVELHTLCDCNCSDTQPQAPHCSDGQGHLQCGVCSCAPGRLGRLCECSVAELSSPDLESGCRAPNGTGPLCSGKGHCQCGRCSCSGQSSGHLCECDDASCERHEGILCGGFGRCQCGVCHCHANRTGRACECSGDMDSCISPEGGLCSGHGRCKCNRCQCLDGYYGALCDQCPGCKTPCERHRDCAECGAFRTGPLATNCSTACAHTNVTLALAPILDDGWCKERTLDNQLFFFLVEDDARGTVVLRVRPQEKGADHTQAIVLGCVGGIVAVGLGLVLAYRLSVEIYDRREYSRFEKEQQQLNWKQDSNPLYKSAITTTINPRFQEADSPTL
Test: Inhibition of human MAdCAM1 binding to integrin alpha4beta7 receptor in human RPMI 8866 cells labeled with Calcein AM
Assay type: cell-based
Item-by-item account of IC50
property.label: IC50 (nM)

# chem.smiles, test.system, unit.descriptor, result.value
data = [
    ("Cc1c(-c2ccc(C[C@H](NC(=O)c3c(Cl)cccc3Cl)C(=O)O)cc2)c(=O)n(C)c(=O)n1C", "Integrin alpha-4/beta-7 (Homo sapiens, UniProt P13612+P26010)", "nM", 35),
    ("Cc1cc(C[C@H](NC(=O)c2c(C)cccc2Cl)C(=O)O)ccc1-c1c(C)n(C)c(=O)n(C)c1=O", "Integrin alpha-4/beta-7 (Homo sapiens, UniProt P13612+P26010)", "nM", 254),
    ("Cc1cc(C[C@H](NC(=O)c2c(Cl)cccc2Cl)C(=O)O)ccc1-c1cn(C)c(=O)n(C)c1=O", "Integrin alpha-4/beta-7 (Homo sapiens, UniProt P13612+P26010)", "nM", 220),
    ("Cn1c(C(F)(F)F)c(-c2ccc(C[C@H](NC(=O)c3c(Cl)cccc3Cl)C(=O)O)cc2)c(=O)n(C)c1=O", "Integrin alpha-4/beta-7 (Homo sapiens, UniProt P13612+P26010)", "nM", 219),
]

====

Assay: Half life in dog at 5 mg/kg, iv
Assay type: ADME, organism-based, Canis lupus familiaris
Design: dose 5 mg/kg, route intravenous
Conditions: in vivo
property.label: half-life

# chem.smiles, property.label, result.value
measured = [
    ("Cc1c(-c2ccc(C[C@H](NC(=O)c3c(F)cccc3F)C(=O)O)cc2)c(=O)n(C)c(=O)n1C", "half-life", "11.4 min"),
]

====

Assay: Oral bioavailability in rat
Type: ADME, organism-based
Settings: in vivo
Item-by-item account of bioavailability

# compound, bioavailability
records = [
    ("CCOC(=O)[C@H](Cc1ccc(-c2c(C)n(C)c(=O)n(C)c2=O)cc1)NC(=O)c1c(F)cccc1F", "9%"),
    ("CCOC(=O)[C@H](Cc1ccc(-c2c(C)n(C)c(=O)n(C)c2=O)cc1)NC(=O)c1c(C)cccc1Cl", "25%"),
    ("Cc1cccc(Cl)c1C(=O)N[C@@H](Cc1ccc(-c2c(C)n(C)c(=O)n(C)c2=O)cc1)C(=O)O", "10%"),
    ("Cc1c(-c2ccc(C[C@H](NC(=O)c3c(Cl)cccc3Cl)C(=O)O)cc2)c(=O)n(C)c(=O)n1C", "1.7%"),
    ("CC(=O)OC(C)OC(=O)[C@H](Cc1ccc(-c2c(C)n(C)c(=O)n(C)c2=O)cc1)NC(=O)c1c(F)cccc1F (stereo partly specified)", "30%"),
    ("CCOC(=O)[C@H](Cc1ccc(-c2c(C)n(C)c(=O)n(C)c2=O)cc1)NC(=O)c1c(Cl)cccc1Cl", "6%"),
]

====

Assay: Distribution coefficient, log D of the compound
Format: physicochemical
Conditions: octanol/water
Threshold 2. logD below it: Condition met. logD at it or above: Condition not met.

# compound, classification
measured = [
    ("Cc1c(-c2ccc(C[C@H](NC(=O)c3c(F)cccc3F)C(=O)O)cc2)c(=O)n(C)c(=O)n1C", "Condition met"),
    ("CCOC(=O)[C@H](Cc1ccc(-c2c(C)n(C)c(=O)n(C)c2=O)cc1)NC(=O)c1c(C)cccc1Cl", "Condition not met"),
    ("Cc1cccc(Cl)c1C(=O)N[C@@H](Cc1ccc(-c2c(C)n(C)c(=O)n(C)c2=O)cc1)C(=O)O", "Condition met"),
    ("CC(=O)OC(C)OC(=O)[C@H](Cc1ccc(-c2c(C)n(C)c(=O)n(C)c2=O)cc1)NC(=O)c1c(F)cccc1F (some centres not stated)", "Condition met"),
    ("CCOC(=O)[C@H](Cc1ccc(-c2c(C)n(C)c(=O)n(C)c2=O)cc1)NC(=O)c1c(F)cccc1F", "Condition met"),
    ("Cc1c(-c2ccc(C[C@H](NC(=O)c3c(Cl)cccc3Cl)C(=O)O)cc2)c(=O)n(C)c(=O)n1C", "Condition met"),
]

====

Test: Half life in cynomolgus monkey at 10 mg/kg, iv
Type: ADME, organism-based, Macaca fascicularis
Set-up: dose 10 mg/kg, route intravenous
Details: in vivo

# chem.smiles, half-life, h
rows = [
    ("Cc1c(-c2ccc(C[C@H](NC(=O)c3c(F)cccc3F)C(=O)O)cc2)c(=O)n(C)c(=O)n1C", 1.46),
]

====

Molecular target: Integrin alpha-4/beta-1 (Homo sapiens, UniProt P05556+P13612)
Sequence (P05556 whole entry, one chain of several): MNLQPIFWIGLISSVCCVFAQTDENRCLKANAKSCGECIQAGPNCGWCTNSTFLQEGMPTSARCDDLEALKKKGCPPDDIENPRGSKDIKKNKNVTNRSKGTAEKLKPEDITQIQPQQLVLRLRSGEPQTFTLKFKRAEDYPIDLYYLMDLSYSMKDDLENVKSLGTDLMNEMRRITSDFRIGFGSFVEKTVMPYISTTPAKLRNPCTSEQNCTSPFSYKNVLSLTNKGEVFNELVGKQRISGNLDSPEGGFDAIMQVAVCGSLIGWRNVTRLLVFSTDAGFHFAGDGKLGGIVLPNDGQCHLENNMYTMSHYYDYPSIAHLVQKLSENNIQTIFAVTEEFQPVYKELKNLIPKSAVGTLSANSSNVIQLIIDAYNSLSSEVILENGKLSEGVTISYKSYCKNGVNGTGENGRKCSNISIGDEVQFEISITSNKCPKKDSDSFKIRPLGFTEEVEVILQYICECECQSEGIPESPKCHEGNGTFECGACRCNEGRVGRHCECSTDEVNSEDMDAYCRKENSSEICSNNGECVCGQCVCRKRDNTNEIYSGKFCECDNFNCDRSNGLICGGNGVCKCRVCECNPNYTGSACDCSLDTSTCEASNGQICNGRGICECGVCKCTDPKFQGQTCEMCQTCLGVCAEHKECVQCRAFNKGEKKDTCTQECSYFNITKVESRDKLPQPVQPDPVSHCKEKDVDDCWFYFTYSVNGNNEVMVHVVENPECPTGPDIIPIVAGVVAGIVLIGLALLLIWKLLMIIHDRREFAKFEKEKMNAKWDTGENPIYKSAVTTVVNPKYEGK
Assay: Inhibition of human VCAM1 binding to integrin alpha4beta1 receptor in human Ramos cells labeled with Calcein AM
property.label: log10 of IC50 (log10 of the value in nM)

# chem.smiles, log10 of IC50
records = [
    ("Cc1cc(C[C@H](NC(=O)c2c(C)cccc2Cl)C(=O)O)ccc1-c1cn(C)c(=O)n(C)c1=O", 1.91),
    ("COCCC1(C(=O)N[C@@H](Cc2ccc(-c3cn(C)c(=O)n(C)c3=O)c(C)c2)C(=O)O)CCCC1", 1.81),
    ("CCc1cccc(Cl)c1C(=O)N[C@@H](Cc1ccc(-c2c(C)n(C)c(=O)n(C)c2=O)cc1)C(=O)O", 1.94),
    ("Cc1c(-c2ccc(C[C@H](NC(=O)c3c(Cl)cccc3Cl)C(=O)O)cc2)c(=O)n(C)c(=O)n1C", 0.90),
    ("Cc1cc(C[C@H](NC(=O)c2c(Cl)cccc2Cl)C(=O)O)ccc1-c1cn(C)c(=O)n(C)c1=O", 1.75),
    ("CCn1c(C)c(-c2ccc(C[C@H](NC(=O)C3(CCOC)CCCC3)C(=O)O)cc2)c(=O)n(CC)c1=O", 2.58),
    ("Cc1c(-c2ccc(C[C@H](NC(=O)c3c(Cl)cccc3C(C)C)C(=O)O)cc2)c(=O)n(C)c(=O)n1C", 2.33),
    ("Cc1cc(C[C@H](NC(=O)c2c(C)cccc2Br)C(=O)O)ccc1-c1cn(C)c(=O)n(C)c1=O", 1.40),
    ("Cc1c(-c2ccc(C[C@H](NC(=O)c3c(C(C)C)cccc3C(C)C)C(=O)O)cc2)c(=O)n(C)c(=O)n1C", 3.16),
    ("COCCC1(C(=O)N[C@@H](Cc2ccc(-c3c(C)n(C)c(=O)n(C)c3=O)cc2)C(=O)O)CCCC1", 2.46),
    ("Cc1cc(C[C@H](NC(=O)c2c(C)cccc2Cl)C(=O)O)ccc1-c1c(C)n(C)c(=O)n(C)c1=O", 2.39),
]
